pKi: −log10 of the molar value.
Let's look at some pKi data for ROCK2 (Homo sapiens) that I collected from the literature.

Worked cases, pKi given:
smiles_structure	pKi
Cc1c[nH]c2ncnc(Oc3ccc(C[C@H](N)C(=O)N4CCC(S(=O)(=O)c5ccc(F)cc5)CC4)cc3F)c12	> 8.52
Cc1c[nH]c2nccc(Oc3ccc(C[C@H](N)C(=O)NC4(CO)CCC4)cc3F)c12	> 8.52
CCOc1cc(-c2ccncc2)ccc1C(=O)N[C@H](C)c1cccc(OC)c1	> 7.30
C[C@@H](NC(=O)c1ccc(-c2ccncc2)c(F)c1)c1ccc2ccccc2c1	6.30 to 7.30
Cc1c[nH]c2nccc(Oc3ccc(C[C@H](N)c4nc(CCc5ccccc5)no4)cc3F)c12	> 8.30
c1cc(-c2c[nH]c3nccc(Oc4ccc5c(c4)CNCC5)c23)cc(NC[C@@H]2CCCO2)n1	> 8.52
O=C(Cc1ccccc1)Nc1nnc(-c2c[nH]c3nccc(Oc4ccc5c(c4)CNCC5)c23)o1	> 8.52

We next turn to a different compound, shown below.
// query Report pKi for `O=C(N[C@H](CO)Cc1ccccc1)c1ccc(-c2ccncc2)cc1` please.
// result > 7.30
